Data origin, for the record: patent US4444786A

- ASSAY REMARKS: Test Example 5: acute toxicity by oral administration against male mice
- RECORDED CONDITIONS: mouse, in vivo, seventh day, Litchfield-Wilcoxon method
Record form. Attribute: LD50 at 168 h. Fill in for each entry.
Field: numeric (mg/kg). Do not append units.

response.value for CCCCOC(=O)CCN(SN(C)C(=O)ON=C(C)SC)C(C)C (field: LD50 at 168 h) = 280

Documented LD50 at 168 h of CCCN(CCC(=O)OCC)SN(C)C(=O)ON=C(C)SC : 150

GET /value?item= CCOC(=O)CCN(SN(C)C(=O)ON=C(C)SC)C1CCCCC1 &field=LD50 at 168 h returns 200

Noted for CCOC(=O)CCN(SN(C)C(=O)ON=C(C)SC)c1ccc(Cl)cc1 : its LD50 at 168 h reads 250

get_value(item= CCOC(=O)CN(SN(C)C(=O)ON=C(C)SC)C(=O)CC , readout=LD50 at 168 h) returns 200

# molecule CCOC(=O)CCN(Cc1ccccc1)SN(C)C(=O)ON=C(C)SC ; its LD50 at 168 h = 250

CCOC(=O)CCN(SN(C)C(=O)ON=C(C)SC)c1ccc(OC)cc1 has a reported LD50 at 168 h of 250

The recorded LD50 at 168 h for CCCCCCN(CCC(=O)OCC)SN(C)C(=O)ON=C(C)SC is 300

Documented LD50 at 168 h of CCCCC(CC)COC(=O)CCN(SN(C)C(=O)ON=C(C)SC)C(C)C (stereo not drawn) : 300

What the record says about CNC(=O)ON=C(C)SC [Control*, reference compound] : LD50 at 168 h is 16

LD50 at 168 h reported for this molecule CCOC(=O)CCN(Cc1ccc(Cl)cc1)SN(C)C(=O)ON=C(C)SC : 250

Form: molecule = CCCCN(CC(=O)OCC)SN(C)C(=O)ON=C(C)SC ; LD50 at 168 h = 170

The reported value for CCOC(=O)CCN(CCC(=O)OCC)SN(C)C(=O)ON=C(C)SC in terms of LD50 at 168 h is 300

Looking up CCOC(=O)CN(SN(C)C(=O)ON=C(C)SC)S(=O)(=O)c1ccc(C)cc1 , I see its LD50 at 168 h listed as 250

Field LD50 at 168 h (entry CCCCCCCCN(CCC(=O)OCC)SN(C)C(=O)ON=C(C)SC ) reads 270

Reported LD50 at 168 h of CCOC(=O)CCN(SN(C)C(=O)ON=C(C)SC)C(C)C : 150

Item: CCOC(=O)CCN(SN(C)C(=O)ON=C(C)SC)c1cccc(C)c1 | LD50 at 168 h: 250

// LD50 at 168 h value for CCOC(=O)CCN(CC(C)C)SN(C)C(=O)ON=C(C)SC : 170

The recorded LD50 at 168 h for CCOC(=O)CN(SN(C)C(=O)ON=C(C)SC)C(=O)OCC is 200

The molecule CCOC(=O)CN(CC(=O)OCC)SN(C)C(=O)ON=C(C)SC showed LD50 at 168 h equal to 300

Measured LD50 at 168 h, CCCCN(CCC(=O)OC)SN(C)C(=O)ON=C(C)SC : 150
